- Test system: Vero E6 infected with SARS-CoV-2
- testName: inhibition of SARS-CoV-2 cytopathic effect; higher = more antiviral protection, active = above 15
- experimentalParameters: 1 nM; 48 h
readoutKind: inhibition of SARS-CoV-2 cytopathic effect (%)
Express it in %; write the number only.

# annotated cases, reported inhibition of SARS-CoV-2 cytopathic effect shown
What measured inhibition of SARS-CoV-2 cytopathic effect is associated with CCN1CCN(C(=O)N[C@@H](C(=O)N[C@@H]2C(=O)N3C(C(=O)O)=C(CSc4nnnn4C)CS[C@H]23)c2ccc(O)cc2)C(=O)C1=O [cefoperazone] on Vero E6 infected with SARS-CoV-2?
-0.37

Another compound to check: Cc1ccc(NCCCc2ccccc2)c(N)c1 [NFKB-activation-inhibitor-II]
-0.97

Same question for c1ccc(N2CCN(CCCOc3ccc4c(c3)OCO4)CC2)cc1 please.
-0.84

Same for CN(C)[C@@H]1CCc2[nH]c3ccc(NC(=O)c4ccc(F)cc4)cc3c2C1
-0.2

Same lookup for O=C(O)CNC(=O)C1C(=O)N(C2CCCCC2)C(=O)N(C2CCCCC2)C1=O [daprodustat] , please.
-0.26

Next entry: CCCC(=O)Nc1ccc(OCC(O)CNC(C)C)c(C(C)=O)c1 (stereo not drawn) [acebutolol]
4.4

***
Give the reported inhibition of SARS-CoV-2 cytopathic effect for CN[C@@H](C)C(=O)N[C@H]1CCCC[C@H]2CC[C@@H](C(=O)N[C@@H](c3ccccc3)c3cn(CCCCc4ccc(CCCCn5cc([C@@H](NC(=O)[C@@H]6CC[C@@H]7CCCC[C@H](NC(=O)[C@H](C)NC)C(=O)N76)c6ccccc6)nn5)cc4)nn3)N2C1=O (system: Vero E6 infected with SARS-CoV-2).
-2.38

Try CCS(=O)(=O)N(Cc1cccnc1)c1cccc(-c2ccc(C#N)cc2)c1 next.
1.24

###

Entries and their morphology score values follow.
- Test system: Vero E6 infected with SARS-CoV-2
- testName: morphology score (similarity to uninfected cells); higher = more like uninfected cells
- experimentalParameters: 24 h
Answer with a bare number; do not write a unit.

Use these answered entries as a reference point.
# value lookup — system Vero E6 infected with SARS-CoV-2, readout morphology score, item CCCCCCCCCCCCCC[C@@H](O)[C@@H](O)[C@@H](N)CO [phytosphingosine] (10 µM)
-0.0786

Same thing, different molecule: CC(C)Oc1ccc2c(=O)c3cc(C(=O)O)ccc3oc2c1 (10 µM)
0.0971

What do you get for CCNC(=O)NS(=O)(=O)c1sc(CC(C)C)cc1-c1ccc(Cn2c(-c3ccccc3)nc(OC)c2C=O)cc1 (10 µM) ?
0.159

// next entry
Notebook entry, Vero E6 infected with SARS-CoV-2 assay: morphology score of O=C(/C=C/c1ccc(O)c(O)c1)O[C@@H]1C[C@](O)(C(=O)O)C[C@@H](O)[C@H]1O [chlorogenic-acid] (10 µM) = ?
0.0432

###

Entries and their measured inhibition of SARS-CoV-2 cytopathic effect follow.
- Test system: Vero E6 infected with SARS-CoV-2
- testName: inhibition of SARS-CoV-2 cytopathic effect; higher = more antiviral protection, active = above 15
- experimentalParameters: 8.33 nM; 48 h
Answer format: numeric, % implied, no suffix.

Reference set, count: 4
Reported inhibition of SARS-CoV-2 cytopathic effect, compound COC(=O)c1ccc(N2CCN(C)CC2)c(NC(=O)c2cccc(OC)c2)c1 : ____
6.06

Input O=C1Cc2c([nH]c3ccc(Br)cc23)-c2ccccc2N1 [kenpaullone]
-2.19

Also need CCc1cc2c(c(CC)n1)CCC(=O)N2Cc1ccc(-c2ccccc2-c2nnn[nH]2)cc1 , thanks.
-5.09

Can you handle CC(c1cc2ccccc2s1)N(O)C(N)=O (stereo not given) [zileuton] next?
-0.81

More entries:
Quick check: inhibition of SARS-CoV-2 cytopathic effect of CN1CCC(=C2c3ccccc3CCc3sccc32)CC1 [pizotifen] ?
-0.27
